# protocol notes: Pharmacokinetics in mice
# Format: in vivo
# condition details: female, ICR, mouse, plasma, iv, 10 mg/kg
quantity measured: clearance (mL/min/kg)
Answers are plain numbers, in mL/min/kg.

Input line: # input compound: N#Cc1ccc(/C=C/c2nc3ccccc3c(=O)n2-c2cc(C(=O)O)ccc2F)cc1 ; wanted: its clearance
Output line: 7.7
